Values from ChEMBL document CHEMBL1201862

- System: NCI-H226
- experiment-description: NCI tumour cell line growth inhibition, 48 h
Calls of active or inactive are those of the source. Rule as the data show it: active = GI50 up to about 1.1 µM and inactive = higher.
Please answer using one outcome listed in class 1 (active), class 0 (inactive)

Here's what some known entries look like.
molecule=CCOC(=O)C1(C(=O)OCC)CCCN1C(=O)[C@H](CNC(=O)OC(C)(C)C)NC(=O)OCc1ccccc1 classification="class 0"
molecule="CC(C)(CN1CCCCC1)C(=O)CC(SCCS(=O)(=O)O)c1ccc(Cl)cc1 (stereo not given)" classification="class 0"
molecule="C=CCOc1ccccc1C1(O)c2ccccc2C2=NCCCN21 (stereo not given)" classification="class 0"
molecule=NC(=S)N/C=C1\C(=O)Oc2ccccc2C1=O classification="class 0"
molecule=O=[N+]([O-])c1ccccc1S(=O)(=O)N1CCCc2cc(Cl)ccc21 classification="class 0"
molecule=COC(=O)c1c2n(c3ccccc13)C[C@H]1OC(C)(C)O[C@@H]21 classification="class 0"
molecule="Cc1c2cc[n+](C)cc2c(C)c2c1[nH]c1ccc(O)cc12 [ELLIPTINIUM ACETATE]" classification="class 0"
molecule=CC(=O)NCCCCN(CCCNC(C)=O)C(=O)CNS(=O)(=O)c1cccc2c(N(C)C)cccc12 classification="class 0"
molecule="CC1(C)SC2C(C(=O)O)N=C(Cc3ccccc3)N2C1C(=O)O (stereo not given)" classification="class 0"
molecule=Cc1cccc(Cl)c1NC(=O)c1cccc([N+](=O)[O-])c1O classification="class 0"

Prompt line: Look up the recorded call for CCC(=O)C(c1ccccc1)c1ccccn1 (stereo not given) in this test.
Response line: class 0

Prompt line: Look up the recorded call for COC(=O)C(C(=O)C(=O)Nc1nnc(S)[nH]1)c1csc(N)n1 (stereo not given) in this test.
Response line: class 0

Prompt line: Look up the recorded call for CCSc1n/c(=C\c2ccco2)c2nncn12 in this test.
Response line: class 0

Prompt line: Look up the recorded call for COC1=CCC=C(C[C@@H]2NCCc3cc(OC)c(OC)cc32)C1 in this test.
Response line: class 0

* * *

- Tested on: SK-MEL-2
- experiment-description: NCI tumour cell line growth inhibition, 48 h
Calls of active or inactive are those of the source. No stated cut-off is given here; in the data, active = GI50 up to about 1.1 µM and inactive = higher.
Please answer using one outcome listed in active, inactive

compound=CCSc1n/c(=C\c2ccco2)c2nncn12 classification=inactive
compound=CCCCCCCCCC(=O)CC(=O)c1ccc(O)cc1O classification=inactive
compound=COC(=O)c1sc(=O)sc1SCc1cccc(CSc2sc(=O)sc2C(=O)OC)c1 classification=inactive
compound=Cc1nc2ccc(Cl)cc2c(Cl)c1CCCl classification=inactive
compound=Nc1c2c(nc3ccccc13)-c1ccccc1CC2 classification=inactive
compound=Cn1ccc(C(=O)NCCN(CCNC(=O)c2ccn(C)c(=O)c2O)CCNC(=O)c2cccc(=O)n2O)c(O)c1=O classification=inactive
compound="COC(=O)c1ccc(C)cc1C1CN=NC12Cc1cc(C)ccc1C2=O (stereo not given)" classification=inactive
compound=C[C@H]1CCC/C=C/[C@@H]2C[C@H](OC(=O)CN(C)C)C[C@H]2[C@H](O)/C=C/C(=O)O1 classification=active

Prompt line: Look up the recorded call for S=C(N/N=C/c1ccccn1)Nc1ccc(Cl)cc1 in this test.
Response line: inactive

Prompt line: Look up the recorded call for N/N=C(\Nc1ccccc1)SCc1ccccc1 in this test.
Response line: inactive

Prompt line: Look up the recorded call for Clc1ccc(/C=c2\nc(-c3ccccc3)n3c2nc2ccccc23)cc1 in this test.
Response line: inactive
